tested.system: Interstitial collagenase (Homo sapiens) (UniProt P03956)
Sequence (whole entry): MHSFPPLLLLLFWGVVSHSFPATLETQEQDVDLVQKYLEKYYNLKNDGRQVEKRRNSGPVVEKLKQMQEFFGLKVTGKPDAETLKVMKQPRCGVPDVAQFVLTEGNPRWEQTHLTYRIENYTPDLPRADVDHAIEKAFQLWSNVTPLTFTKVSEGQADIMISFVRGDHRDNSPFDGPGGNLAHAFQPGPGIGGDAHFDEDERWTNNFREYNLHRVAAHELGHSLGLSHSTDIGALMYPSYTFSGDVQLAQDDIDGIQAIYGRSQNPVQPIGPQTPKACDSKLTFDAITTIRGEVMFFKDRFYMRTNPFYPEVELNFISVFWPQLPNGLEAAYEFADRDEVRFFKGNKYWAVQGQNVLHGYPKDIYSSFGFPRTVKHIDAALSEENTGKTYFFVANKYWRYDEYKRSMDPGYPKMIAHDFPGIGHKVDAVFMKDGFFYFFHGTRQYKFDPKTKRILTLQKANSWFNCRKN
assay.details: Inhibition of human recombinant MMP1 at 100 uM after 1 hr by fluorescence polarization based competition assay
quantity.kind: inhibition (%)
# unit: % | format: bare number

Record excerpt, results attached:
{"columns": ["smiles.str", "inhibition, %"],
 "data": [
  ["COc1ccc(C(=O)c2coc3c2C(=O)C(=O)C(Br)=C3Br)cc1", 23],
  ["COc1ccc(C(=O)c2coc3c2C(=O)C(=O)C(Cl)=C3Cl)cc1OC", 46],
  ["O=C(c1ccccc1)c1coc2c(Cl)c(Cl)c(O)cc12", 0],
  ["COc1ccc(C(=O)c2coc3c(Br)cc(O)cc23)cc1", 0],
  ["COc1ccc(C(=O)c2coc3c(Cl)c(Cl)c(O)cc23)cc1", 14]
]}

So what does the record say about inhibition for COc1ccc(C(=O)c2coc3c(Cl)c(Cl)c(O)cc23)cc1OC ?
0

So what does the record say about inhibition for COc1cc(C(=O)c2coc3c2C(=O)C(=O)C(Cl)=C3Cl)cc(OC)c1OC ?
32
